Each record here notes measured Fold improvement of humanized parental 4K21 on T117 (TF-1 proliferation IC50).
# Measurement target: human GM-CSF T117 isoform (human, UniProt P04141 18-144)
# Sequence (P04141 18-144 I117T limits assumed): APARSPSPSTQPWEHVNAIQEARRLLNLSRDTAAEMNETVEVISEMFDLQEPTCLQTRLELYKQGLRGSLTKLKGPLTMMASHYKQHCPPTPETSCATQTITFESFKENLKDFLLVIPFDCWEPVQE
# Method notes: cell-based or functional assay
Assay endpoint: Fold improvement of humanized parental 4K21 on T117 (TF-1 proliferation IC50)

Binder	Value measured
4K21 hVH S55K-T62S hVL N28I-H34S-N53R-H93F (MSB0010628) (antibody, V domains shown, Tested as IgG ('optimized 4K21 IgGs'); the humanized parent is hIgG1 kappa; also called optimized 4K21 antibody; 4K21 (4K21 VH S55K-T62S VL N28I-H34S-N53R-H93F)) VH: EVQLVESGGGLVQPGGSLRLSCAASGFAFSAYDMSWVRQAPGKRLELVAYISSGGKSFYYPDSVKGRFTISRDNAKNSLYLQMNSLRAEDTAVYYCTRHLGFDYWGQGTLVTVSS VL: DIVMTQSPLSLPVTPGEPASISCRSSQSLVNSIGNTYLSWYLQKPGQSPQLLIYKVSRRFSGVPDRFSGSGSGTDFTLKISRVEAEDVGVYYCSQSTFVPPTFGQGTKVEIK	63 fold
humanized parental anti-GM-CSF 4K21 VH3-07.1AL+VK2-A3.2 hIgG1 K antibody (MSB0010439) (antibody, V domains shown, hIgG1 kappa; also called humanized parental 4K21 hVH hVL; humanized parental 4K21) VH: EVQLVESGGGLVQPGGSLRLSCAASGFAFSAYDMSWVRQAPGKRLELVAYISSGGSSFYYPDTVKGRFTISRDNAKNSLYLQMNSLRAEDTAVYYCTRHLGFDYWGQGTLVTVSS VL: DIVMTQSPLSLPVTPGEPASISCRSSQSLVNSNGNTYLHWYLQKPGQSPQLLIYKVSNRFSGVPDRFSGSGSGTDFTLKISRVEAEDVGVYYCSQSTHVPPTFGQGTKVEIK	1 fold
anti-GM-CSF 4K21 hIgG1 K antibody (MSB0010259), recombinant chimeric 4K21 (antibody, V domains shown, Murine variable domains fused to human constant IgG1 heavy chain and kappa light chain domains; also called parental chimeric 4K21) VH: EVQLVESGGGLVKSGGSLKLSCAASGFAFSAYDMSWVRQTPEKRLELVAYISSGGSSFYYPDTVKGRFTISRDNAKNTLYLQMSSLKSEDTAMYYCTRHLGFDYWGQGTTLTVSS VL: DVVMTQTPLSLPVSLGDQASISCRSSQSLVNSNGNTYLHWFLQKPGQSPKLLIYKVSNRFSGVPDRFSGSGSGTDFTLKISRVEAEDLGVYFCSQSTHVPPTFGGGTKLEIK	1 fold
4K21 hVH S55K-T62S hVL S27eY-N28I-H34S-N53R-H93F (MSB0010629) (antibody, V domains shown, Tested as IgG ('optimized 4K21 IgGs'); the humanized parent is hIgG1 kappa; also called optimized 4K21 antibody with S27eY; 4K21 (4K21 VH S55K-T62S VL S27eY-N28I-H34S-N53R-H93F)) VH: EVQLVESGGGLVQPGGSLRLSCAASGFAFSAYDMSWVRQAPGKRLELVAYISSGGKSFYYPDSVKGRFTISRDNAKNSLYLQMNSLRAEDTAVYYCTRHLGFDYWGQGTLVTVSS VL: DIVMTQSPLSLPVTPGEPASISCRSSQSLVNYIGNTYLSWYLQKPGQSPQLLIYKVSRRFSGVPDRFSGSGSGTDFTLKISRVEAEDVGVYYCSQSTFVPPTFGQGTKVEIK	32 fold
